# MEASUREMENT_TARGET: RORγ ligand binding domain (LBD) (Homo sapiens, UniProt P51449)
# Construct: made in house; host or cells: E. coli BL-21 (BL3), vector pDEST15
# EXPERIMENT_NOTES: TR-FRET Activity Assay (ligand sensing, RORγ-LBD / coactivator peptide interaction, LANCE)
# Format: biochemical
# CONDITION_INFO: first value of the cell FRET/FF/REN; TR-FRET activity assay; read-out: pIC50 (FRET) (converted)
Give measured IC50 for each item. Keep answers brief.
Dear colleague, please return just the value in nM, with no unit written.

Inquiry: Could you tell me which IC50 is on file for Cc1c(C(=O)N2CC(CC(=O)O)C2)cc(-c2ccc(S(=O)(=O)NC(C)(C)C)c(C(F)(F)F)c2)n1CC1CCCCC1 ?
Reply text: 398

Inquiry: Could you tell me which IC50 is on file for Cc1c(C(=O)NC2CC2)cc(-c2cc(C(C)(C)C)c3c(c2)C2(CCO3)CC2)n1CC1CCCCC1 ?
Reply text: 200

Inquiry: Could you tell me which IC50 is on file for Cc1c(C(=O)NC2CCOCC2)cc(-c2ccc(S(=O)(=O)NC(C)(C)C)c(C(F)(F)F)c2)n1CC1CCC1 ?
Reply text: 316

Inquiry: Could you tell me which IC50 is on file for Cc1c(C(=O)NC2CCOCC2)cc(C2=NN(S(=O)(=O)c3ccccc3)C3(CCCCC3)C2)n1CC1CCCCC1 ?
Reply text: 12600

###

Give measured pIC50 (REN) for each item. Keep answers brief.
# MEASUREMENT_TARGET: UniProt P51449
# Sequence (P51449 1-518): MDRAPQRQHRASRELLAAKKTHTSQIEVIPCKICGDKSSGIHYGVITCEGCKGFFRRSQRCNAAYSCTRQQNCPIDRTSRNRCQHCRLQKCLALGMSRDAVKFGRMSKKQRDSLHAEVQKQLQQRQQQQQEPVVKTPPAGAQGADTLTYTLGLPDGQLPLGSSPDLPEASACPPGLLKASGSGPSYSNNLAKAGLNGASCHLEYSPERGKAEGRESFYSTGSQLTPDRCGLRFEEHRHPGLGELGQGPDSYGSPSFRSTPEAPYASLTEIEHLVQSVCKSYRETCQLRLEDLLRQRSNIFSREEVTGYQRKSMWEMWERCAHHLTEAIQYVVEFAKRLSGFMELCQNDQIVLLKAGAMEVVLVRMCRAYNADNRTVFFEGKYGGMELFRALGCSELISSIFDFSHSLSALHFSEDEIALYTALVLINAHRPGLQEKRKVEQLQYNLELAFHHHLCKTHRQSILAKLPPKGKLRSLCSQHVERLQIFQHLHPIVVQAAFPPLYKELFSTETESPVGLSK
# EXPERIMENT_NOTES: RORγ Gal4 Reporter Gene Assay in 293T cells (firefly and renilla luciferase)
# Assay type: cell-based, human

Inquiry: Could you tell me which pIC50 (REN) is on file for Cc1c(C(=O)NCC2(C)COC2)cc(-c2ccc(S(=O)(=O)NC(C)(C)C)c(C(C)(C)C)c2)n1CC1CCCCC1 ?
Reply text: 6.3/7.5/7.4

Inquiry: Could you tell me which pIC50 (REN) is on file for Cc1c(C(=O)NC2CCS(=O)(=O)CC2)cc(-c2ccc(S(=O)(=O)NC(C)(C)C)c(C(C)(C)C)c2)n1CC1CCCCC1 ?
Reply text: 6.0/7.3/7.1

Inquiry: Could you tell me which pIC50 (REN) is on file for COCC(=O)NC(C)(C)CNC(=O)c1cc(-c2cc(C(C)(C)C)c3c(c2)C2(CCO3)CC2)n(CC2CCCCC2)c1C ?
Reply text: 6.1/7.4/7.5

Inquiry: Could you tell me which pIC50 (REN) is on file for Cc1c(C(=O)NCCCCC[S+](C)[O-])cc(-c2cc(C(C)(C)C)c3c(c2)C2(CCO3)CC2)n1CC1CCCCC1 (centres unmarked) ?
Reply text: 5.8/6.4/6.3

Inquiry: Could you tell me which pIC50 (REN) is on file for Cc1c(C(=O)NCC2(C(N)=O)CCOCC2)cc(-c2ccc(S(=O)(=O)NC(C)(C)C)c(C(C)(C)C)c2)n1CC1CCCCC1 ?
Reply text: 5.8/7.9/8.0

Inquiry: Could you tell me which pIC50 (REN) is on file for Cc1c(C(=O)NCC2(O)CCOCC2)cc(-c2ccc(S(=O)(=O)NC(C)(C)C)c(C(C)(C)C)c2)n1CC1CCCCC1 ?
Reply text: 6.2/7.5/7.5

Inquiry: Could you tell me which pIC50 (REN) is on file for Cc1c(C(=O)NC2CCOCC2)cc(-c2ccc(C(=O)NC3CCCCC3)c(C(C)(C)C)c2)n1CC1CCCCC1 ?
Reply text: 6.2/6.8/6.7

Inquiry: Could you tell me which pIC50 (REN) is on file for Cc1c(C(=O)NCC(C)(C)NS(C)(=O)=O)cc(-c2cc(C(C)(C)C)cc(C(C)(C)C)c2)n1CC1CCCCC1 ?
Reply text: 6.5/7.5/7.6

Inquiry: Could you tell me which pIC50 (REN) is on file for Cc1cc(-c2cc(C(=O)NC3CCOCC3)c(C)n2CC2CCCCC2)cc(C(F)(F)F)c1S(=O)(=O)NC(C)(C)C ?
Reply text: 6.1/6.8/7.0

Inquiry: Could you tell me which pIC50 (REN) is on file for Cc1c(C(=O)NC2CS(=O)(=O)C2)cc(-c2cc(C(C)(C)C)cc(C(C)(C)C)c2)n1CC1CCCCC1 ?
Reply text: 6.6/7.4/7.4

Inquiry: Could you tell me which pIC50 (REN) is on file for Cc1c(C(=O)NC2COC2)cc(-c2cc(OCC(C)(C)C)nc(C(C)(C)C)c2)n1CC1CCCCC1 ?
Reply text: 6.9/7.1/7.3

Inquiry: Could you tell me which pIC50 (REN) is on file for Cc1c(C(=O)NC2CCOCC2)cc(-c2ccc(S(=O)(=O)NC(C)(C)C)c(OCC(C)(C)C)c2)n1CC1CCCCC1 ?
Reply text: 5.3/6.5/6.9

Inquiry: Could you tell me which pIC50 (REN) is on file for Cc1c(C(=O)NC2COC2)cc(-c2cc(C(=O)NC(C)(C)C)cc(C(C)(C)C)c2)n1CC1CCCCC1 ?
Reply text: 6.1/7.6/7.7

Inquiry: Could you tell me which pIC50 (REN) is on file for Cc1c(C(=O)NCC2(O)CCOCC2)cc(-c2cc(C(C)(C)C)c3c(c2)C2(CCO3)CC2)n1CC1CCCCC1 ?
Reply text: 6.4/7.1/7.2

These data points were gathered from patent US9815851B2.
